Tested on: Plasmodium berghei
MEASUREMENT NOTES: Screen against P. berghei liver stage (PbLuc), transformed with Luciferase, at 2uM
Type: functional, HepG2
STATED CONDITIONS: tested at 2 uM
Out of some 68,000 compounds screened, about 2,700 (4%) showed an effect of 50% or more. What follows is part of a selection rich in strong results, with near analogues and random picks from the rest.
Rule: INHIBITION of 10% or more gives YES; anything lower gives NO.

# count of solved cases: 4
MOLECULE	ASSIGNED CLASS
CC(C)c1ccc(OCCC(=O)N2CCC(C(N)=O)CC2)cc1	NO
CCCOc1ccc(CNC(=O)N2CCC(C(N)=O)C2)cc1 (stereo unspecified)	YES
C=Cc1ccc(C(=O)N2CCCC(Nc3ccccc3)C2)cc1 (stereo unspecified)	YES
CCc1cnc(CNC(=O)NCCCO)s1	YES

QUERY: Determine whether this molecule has INHIBITION no lower than 10%: CCc1cnc(CNC(=O)NC2CC(C)(C)OC2(C)C)s1 (stereo unspecified)
RESULT: NO

QUERY: Now the same for `Cc1cccc(-c2nc(CN3CCc4c(ncn4C)C3)no2)c1`
RESULT: YES
